molecular target: recombinant human E-selectin/CD63E Fc Chimera (Homo sapiens, UniProt P16581); construct: Fc (human IgG Fc fusion partner); assay: E-Selectin Activity - Analysis by SPR; conditions: Biacore X100, E-selectin captured on anti-human IgG (Fc) chip
Sequence (P16581 with tags, fused parts or gaps limits assumed): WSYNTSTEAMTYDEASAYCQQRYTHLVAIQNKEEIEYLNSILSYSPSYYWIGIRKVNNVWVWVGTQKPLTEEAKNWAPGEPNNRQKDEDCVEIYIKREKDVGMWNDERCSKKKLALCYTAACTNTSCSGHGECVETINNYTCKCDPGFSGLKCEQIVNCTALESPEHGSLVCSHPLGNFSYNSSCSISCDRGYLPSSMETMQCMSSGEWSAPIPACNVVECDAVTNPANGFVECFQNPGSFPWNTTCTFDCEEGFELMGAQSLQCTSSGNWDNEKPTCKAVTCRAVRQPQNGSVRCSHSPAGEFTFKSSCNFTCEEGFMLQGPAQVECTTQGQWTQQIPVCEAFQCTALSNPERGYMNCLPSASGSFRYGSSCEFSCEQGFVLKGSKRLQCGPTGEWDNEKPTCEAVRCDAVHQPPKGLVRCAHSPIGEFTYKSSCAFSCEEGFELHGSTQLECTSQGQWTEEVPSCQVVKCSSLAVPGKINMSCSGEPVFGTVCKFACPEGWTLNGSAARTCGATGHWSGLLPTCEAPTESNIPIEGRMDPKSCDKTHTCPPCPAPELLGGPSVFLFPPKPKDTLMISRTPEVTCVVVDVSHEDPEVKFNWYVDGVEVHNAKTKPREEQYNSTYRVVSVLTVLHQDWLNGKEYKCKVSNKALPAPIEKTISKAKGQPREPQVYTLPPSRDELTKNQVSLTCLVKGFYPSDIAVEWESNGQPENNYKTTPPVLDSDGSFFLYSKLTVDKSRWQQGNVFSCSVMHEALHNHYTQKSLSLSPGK
measurement-type: pKd
Expect pKd as a plain number equal to -log10 of the molar concentration.

| smiles-data | tested-target | pKd |
| --- | --- | --- |
| CC[C@H]1C[C@@H](C(=O)NCCNC(=O)CCOCCOCCOCCOCCOCCOCCOCCOCCOCCOCCC(=O)NCCNC(=O)[C@@H]2C[C@H](CC)[C@@H](O[C@@H]3O[C@@H](C)[C@@H](O)[C@@H](O)[C@@H]3O)[C@H](O[C@@H]3O[C@H](CO)[C@H](O)[C@H](O[C@@H](CC4CCCCC4)C(=O)N(C)C)[C@H]3NC(C)=O)C2)C[C@@H](O[C@@H]2O[C@H](CO)[C@H](O)[C@H](O[C@@H](CC3CCCCC3)C(=O)N(C)C)[C@H]2NC(C)=O)[C@@H]1O[C@@H]1O[C@@H](C)[C@@H](O)[C@@H](O)[C@@H]1O | recombinant human E-selectin/CD63E Fc Chimera (Homo sapiens, UniProt P16581) | 7.74 |

Query: Item `CC[C@H]1C[C@@H](C(=O)NCCNC(=O)CCOCCOCCC(=O)NCCNC(=O)[C@@H]2C[C@H](CC)[C@@H](O[C@@H]3O[C@@H](C)[C@@H](O)[C@@H](O)[C@@H]3O)[C@H](O[C@@H]3O[C@H](CO)[C@H](O)[C@H](O[C@@H](CC4CCCCC4)C(=O)N4CCC4)[C@H]3NC(C)=O)C2)C[C@@H](O[C@@H]2O[C@H](CO)[C@H](O)[C@H](O[C@@H](CC3CCCCC3)C(=O)N3CCC3)[C@H]2NC(C)=O)[C@@H]1O[C@@H]1O[C@@H](C)[C@@H](O)[C@@H](O)[C@@H]1O` has what recorded pKd?
Reply: 8.52

====

target: recombinant human E-selectin/CD63E Fc Chimera (Homo sapiens, UniProt P16581); construct: Fc (human IgG Fc fusion partner); experiment: E-Selectin Activity - Analysis by SPR; conditions: Biacore X100, E-selectin captured on anti-human IgG (Fc) chip
measurement-type: Kd (nM)
Give the value, in units of nM, as a plain number.

Query: Item CCC1CC(C(=O)NCCNC(=O)c2cn(CCOCCC(=O)NCCCC[C@H](NC(=O)CCOCCn3cc(C(=O)NCCNC(=O)C4CC(CC)[C@@H](O[C@@H]5OC(C)[C@@H](O)[C@H](O)C5O)[C@H](O[C@@H]5O[C@@H](CO)[C@H](O)C(O[C@@H](CC6CCCCC6)C(=O)O)C5NC(C)=O)C4)nn3)C(=O)O)nn2)C[C@@H](O[C@@H]2O[C@@H](CO)[C@H](O)C(O[C@@H](CC3CCCCC3)C(=O)O)C2NC(C)=O)[C@@H]1O[C@@H]1OC(C)[C@@H](O)[C@H](O)C1O (stereo partly shown) has what recorded Kd?
Reply: 6.4

====

Items are presented alongside their recorded pKd.
target: recombinant human E-selectin/CD63E Fc Chimera (Homo sapiens); construct: Fc (human IgG Fc fusion partner); experiment: E-Selectin Activity - Analysis by SPR; details: Biacore X100, E-selectin captured on anti-human IgG (Fc) chip
Expect pKd as a plain number equal to -log10 of the molar concentration.

| compound | tested-target | pKd |
| --- | --- | --- |
| CCC1CC(C(=O)NCCNC(=O)CCC(=O)NCCN(CCNC(=O)CCC(=O)NCCNC(=O)C2CC(CC)C(OC3OC(C)C(O)C(O)C3O)C(OC3OC(CO)C(O)C(OC(CC4CCCCC4)C(=O)O)C3NC(C)=O)C2)CCNC(=O)CCC(=O)NCCNC(=O)C2CC(CC)C(OC3OC(C)C(O)C(O)C3O)C(OC3OC(CO)C(O)C(OC(CC4CCCCC4)C(=O)O)C3NC(C)=O)C2)CC(OC2OC(CO)C(O)C(OC(CC3CCCCC3)C(=O)O)C2NC(C)=O)C1OC1OC(C)C(O)C(O)C1O (centres unmarked) | recombinant human E-selectin/CD63E Fc Chimera (Homo sapiens) | 8.82 |

Lab note: next compound to report on.
Query: Hello, I am looking for reported pKd with recombinant human E-selectin/CD63E Fc Chimera (Homo sapiens) for `CC[C@H]1C[C@@H](C(=O)NCCNC(=O)CCOCCOCCOCCOCCC(=O)NCCNC(=O)[C@@H]2C[C@H](CC)[C@@H](O[C@@H]3O[C@@H](C)[C@@H](O)[C@@H](O)[C@@H]3O)[C@H](O[C@@H]3O[C@H](CO)[C@H](O)[C@H](O[C@@H](CC4CCCCC4)C(=O)N4CCC4)[C@H]3NC(C)=O)C2)C[C@@H](O[C@@H]2O[C@H](CO)[C@H](O)[C@H](O[C@@H](CC3CCCCC3)C(=O)N3CCC3)[C@H]2NC(C)=O)[C@@H]1O[C@@H]1O[C@@H](C)[C@@H](O)[C@@H](O)[C@@H]1O` . Could you help?
Reply: 8.55

====

Items are presented alongside their recorded Kd.
molecular target: recombinant human E-selectin/CD63E Fc Chimera (Homo sapiens); construct: Fc (human IgG Fc fusion partner); experiment: E-Selectin Activity - Analysis by SPR; conditions: Biacore X100, E-selectin captured on anti-human IgG (Fc) chip
Give the value, in units of nM, as a plain number.

# example entries with known answers
| compound | Kd (nM) |
| --- | --- |
| CC[C@H]1C[C@@H](C(=O)NCCNC(=O)CCOCCOCCOCCOCCOCCOCCOCCOCCOCCOCCC(=O)NCCNC(=O)[C@@H]2C[C@H](CC)[C@@H](O[C@@H]3O[C@@H](C)[C@@H](O)[C@@H](O)[C@@H]3O)[C@H](O[C@@H]3O[C@H](CO)[C@H](O)[C@H](O[C@@H](CC4CCCCC4)C(=O)N4CCC4)[C@H]3NC(C)=O)C2)C[C@@H](O[C@@H]2O[C@H](CO)[C@H](O)[C@H](O[C@@H](CC3CCCCC3)C(=O)N3CCC3)[C@H]2NC(C)=O)[C@@H]1O[C@@H]1O[C@@H](C)[C@@H](O)[C@@H](O)[C@@H]1O | 0.8 |
| CC[C@H]1C[C@@H](C(=O)NCCNC(=O)CCOCCOCCOCCOCCOCCOCCC(=O)NCCNC(=O)[C@@H]2C[C@H](CC)[C@@H](O[C@@H]3O[C@@H](C)[C@@H](O)[C@@H](O)[C@@H]3O)[C@H](O[C@@H]3O[C@H](CO)[C@H](O)[C@H](O[C@@H](CC4CCCCC4)C(=O)N4CCC4)[C@H]3NC(C)=O)C2)C[C@@H](O[C@@H]2O[C@H](CO)[C@H](O)[C@H](O[C@@H](CC3CCCCC3)C(=O)N3CCC3)[C@H]2NC(C)=O)[C@@H]1O[C@@H]1O[C@@H](C)[C@@H](O)[C@@H](O)[C@@H]1O | 2.4 |
| CC[C@H]1CC(C(=O)NCCNC(=O)CCC(=O)NCCNC(=O)[C@@H]2C[C@H](CC)[C@@H](O[C@@H]3O[C@@H](C)[C@@H](O)[C@@H](O)[C@@H]3O)[C@H](O[C@@H]3O[C@H](CO)[C@H](O)[C@H](O[C@@H](CC4CCCCC4)C(=O)O)[C@H]3NC(C)=O)C2)C[C@@H](O[C@@H]2O[C@H](CO)[C@H](O)[C@H](O[C@@H](CC3CCCCC3)C(=O)O)[C@H]2NC(C)=O)[C@@H]1O[C@@H]1O[C@@H](C)[C@@H](O)[C@@H](O)[C@@H]1O (stereo partly shown) | 10.2 |

Query: Item `CC[C@H]1C[C@@H](C(=O)NCCNC(=O)CCOCCOCCOCCOCCOCCOCCOCCOCCOCCOCCOCCOCCOCCOCCOCCOCCOCCC(=O)NCCNC(=O)[C@@H]2C[C@H](CC)[C@@H](O[C@@H]3O[C@@H](C)[C@@H](O)[C@@H](O)[C@@H]3O)[C@H](O[C@@H]3O[C@H](CO)[C@H](O)[C@H](O[C@@H](CC4CCCCC4)C(=O)O)[C@H]3NC(C)=O)C2)C[C@@H](O[C@@H]2O[C@H](CO)[C@H](O)[C@H](O[C@@H](CC3CCCCC3)C(=O)O)[C@H]2NC(C)=O)[C@@H]1O[C@@H]1O[C@@H](C)[C@@H](O)[C@@H](O)[C@@H]1O` has what recorded Kd?
Reply: 8.5

====

target: recombinant human E-selectin/CD63E Fc Chimera (Homo sapiens); construct: Fc (human IgG Fc fusion partner); assay: E-Selectin Activity - Analysis by SPR; conditions: Biacore X100, E-selectin captured on anti-human IgG (Fc) chip
measurement-type: Kd (nM)
Give the value, in units of nM, as a plain number.

# example entries with known answers
| compound | number |
| --- | --- |
| CC[C@H]1C[C@@H](C(=O)NCCNC(=O)NCCNC(=O)[C@@H]2C[C@H](CC)[C@@H](O[C@@H]3O[C@@H](C)[C@@H](O)[C@@H](O)[C@@H]3O)[C@H](O[C@@H]3O[C@H](CO)[C@H](O)[C@H](O[C@@H](CC4CCCCC4)C(=O)O)[C@H]3NC(C)=O)C2)C[C@@H](O[C@@H]2O[C@H](CO)[C@H](O)[C@H](O[C@@H](CC3CCCCC3)C(=O)O)[C@H]2NC(C)=O)[C@@H]1O[C@@H]1O[C@@H](C)[C@@H](O)[C@@H](O)[C@@H]1O | 8.8 |
| CC[C@H]1C[C@@H](C(=O)NCCNC(=O)NCCNC(=O)[C@@H]2C[C@H](CC)[C@@H](O[C@@H]3O[C@@H](C)[C@@H](O)[C@@H](O)[C@@H]3O)[C@H](O[C@@H]3O[C@H](CO)[C@H](O)[C@H](O[C@@H](CC4CCCCC4)C(=O)N4CCC4)[C@H]3NC(C)=O)C2)C[C@@H](O[C@@H]2O[C@H](CO)[C@H](O)[C@H](O[C@@H](CC3CCCCC3)C(=O)N3CCC3)[C@H]2NC(C)=O)[C@@H]1O[C@@H]1O[C@@H](C)[C@@H](O)[C@@H](O)[C@@H]1O | 2.1 |
| CC[C@H]1C[C@@H](C(=O)NCCNC(=O)c2cn(CCOCCOCCn3cc(C(=O)NCCNC(=O)[C@@H]4C[C@H](CC)[C@@H](O[C@@H]5O[C@@H](C)[C@@H](O)[C@@H](O)[C@@H]5O)[C@H](O[C@@H]5O[C@H](CO)[C@H](O)[C@H](O[C@@H](CC6CCCCC6)C(=O)O)[C@H]5NC(C)=O)C4)nn3)nn2)C[C@@H](O[C@@H]2O[C@H](CO)[C@H](O)[C@H](O[C@@H](CC3CCCCC3)C(=O)O)[C@H]2NC(C)=O)[C@@H]1O[C@@H]1O[C@@H](C)[C@@H](O)[C@@H](O)[C@@H]1O | 3.2 |
| CC[C@H]1C[C@@H](C(=O)NCCNC(=O)Cn2cc(C(=O)NCCNC(=O)[C@@H]3C[C@H](CC)[C@@H](O[C@@H]4O[C@@H](C)[C@@H](O)[C@@H](O)[C@@H]4O)[C@H](O[C@@H]4O[C@H](CO)[C@H](O)[C@H](O[C@@H](CC5CCCCC5)C(=O)O)[C@H]4NC(C)=O)C3)nn2)C[C@@H](O[C@@H]2O[C@H](CO)[C@H](O)[C@H](O[C@@H](CC3CCCCC3)C(=O)O)[C@H]2NC(C)=O)[C@@H]1O[C@@H]1O[C@@H](C)[C@@H](O)[C@@H](O)[C@@H]1O | 3.3 |
| CC[C@H]1C[C@@H](C(=O)OC)C[C@@H](O[C@@H]2O[C@H](CO)[C@H](O)[C@H](O[C@@H](CC3CCCCC3)C(=O)O)[C@H]2NC(C)=O)[C@@H]1O[C@@H]1O[C@@H](C)[C@@H](O)[C@@H](O)[C@@H]1O [Compound 3, reference compound] | 2260 |

Query: Item CCC1CC(C(=O)NCCNC(=O)c2cn(CCOCCOCCOCCn3cc(C(=O)NCCNC(=O)C4CC(CC)C(OC5OC(C)C(O)C(O)C5O)C(OC5OC(CO)C(O)C(OC(CC6CCCCC6)C(=O)N6CCC6)C5NC(C)=O)C4)nn3)nn2)CC(OC2OC(CO)C(O)C(OC(CC3CCCCC3)C(=O)N3CCC3)C2NC(C)=O)C1OC1OC(C)C(O)C(O)C1O (stereo not drawn) has what recorded Kd?
Reply: 3.2

Query: Item `CC[C@H]1C[C@@H](C(=O)NCCNC(=O)CCOCCOCCC(=O)NCCNC(=O)[C@@H]2C[C@H](CC)[C@@H](O[C@@H]3O[C@@H](C)[C@@H](O)[C@@H](O)[C@@H]3O)[C@H](O[C@@H]3O[C@H](CO)[C@H](O)[C@H](O[C@@H](CC4CCCCC4)C(=O)O)[C@H]3NC(C)=O)C2)C[C@@H](O[C@@H]2O[C@H](CO)[C@H](O)[C@H](O[C@@H](CC3CCCCC3)C(=O)O)[C@H]2NC(C)=O)[C@@H]1O[C@@H]1O[C@@H](C)[C@@H](O)[C@@H](O)[C@@H]1O` has what recorded Kd?
Reply: 3.5

Query: Item CCC1CC(C(=O)NCCNC(=O)c2cn(CCOCCC(=O)NCCCC[C@H](NC(=O)CCOCCn3cc(C(=O)NCCNC(=O)C4CC(CC)[C@@H](O[C@@H]5OC(C)[C@@H](O)[C@H](O)C5O)[C@H](O[C@@H]5O[C@@H](CO)[C@H](O)C(O[C@@H](CC6CCCCC6)C(=O)O)C5NC(C)=O)C4)nn3)C(=O)OCc3ccccc3)nn2)C[C@@H](O[C@@H]2O[C@@H](CO)[C@H](O)C(O[C@@H](CC3CCCCC3)C(=O)O)C2NC(C)=O)[C@@H]1O[C@@H]1OC(C)[C@@H](O)[C@H](O)C1O (stereo partly drawn) has what recorded Kd?
Reply: 3.9

Query: Item `CC[C@H]1C[C@@H](C(=O)NCCNC(=O)CCOCCOCCOCCOCCOCCOCCOCCOCCOCCOCCOCCOCCOCCC(=O)NCCNC(=O)[C@@H]2C[C@H](CC)[C@@H](O[C@@H]3O[C@@H](C)[C@@H](O)[C@@H](O)[C@@H]3O)[C@H](O[C@@H]3O[C@H](CO)[C@H](O)[C@H](O[C@@H](CC4CCCCC4)C(=O)O)[C@H]3NC(C)=O)C2)C[C@@H](O[C@@H]2O[C@H](CO)[C@H](O)[C@H](O[C@@H](CC3CCCCC3)C(=O)O)[C@H]2NC(C)=O)[C@@H]1O[C@@H]1O[C@@H](C)[C@@H](O)[C@@H](O)[C@@H]1O` has what recorded Kd?
Reply: 6.6

// provenance: patent US20220257775A1
